Source of measurements: ChEMBL document CHEMBL1138870

Test system: Plasmodium falciparum
Assay: Resistance index, IC50 of Plasmodium falciparum W2/IC50 Plasmodium falciparum D6
Format: ADME, organism-based
Conditions: in vitro
REPORTED ENDPOINT: Ratio IC50
Form: value (number only, do not type unit).

# lookup: Ratio IC50 of COc1cccc(OC)c1C(=O)/C=C/c1ccc2ccccc2c1
0.97

Param item = COc1ccc(F)cc1C(=O)/C=C/c1ccc2ccccc2n1 ; retrieve measured Ratio IC50.
0.18

Name the reported Ratio IC50 value associated with the compound COc1cc(F)ccc1C(=O)/C=C/c1ccnc2ccccc12
1

Could you tell me which Ratio IC50 is on file for COc1ccc(C(=O)/C=C/c2cnc3ccccc3c2)cc1OC ?
0.65

Can you look up the measured Ratio IC50 of COc1ccc(C(=O)/C=C/c2ccnc3ccccc23)c(OC)c1 for me?
0.67

Consider the compound shown here: COc1cccc(OC)c1C(=O)/C=C/c1ccnc2ccccc12 What is its recorded Ratio IC50?
0.44

Name the reported Ratio IC50 value associated with the compound O=C(/C=C/c1ccnc2ccccc12)c1ccc(Cl)c(Cl)c1
0.47

# query: Ratio IC50 of entry COc1ccc(Cl)cc1C(=O)/C=C/c1cnc2ccccc2c1
0.62

Need Ratio IC50 of COc1ccc(C(=O)/C=C/c2ccnc3ccccc23)c(F)c1 , thanks.
1.9

I have this compound here, COc1cccc(OC)c1C(=O)/C=C/c1cnc2ccccc2c1 , and I need its recorded Ratio IC50.
0.53

I have this compound here, COc1cc(F)ccc1C(=O)/C=C/c1cnc2ccccc2c1 , and I need its recorded Ratio IC50.
1.4

So what's the measured Ratio IC50 for this one? COc1ccc(C(=O)/C=C/c2ccnc3ccccc23)cc1F
3.4

###

Tested on: Plasmodium falciparum
Assay: Resistance index, IC50 of Plasmodium falciparum W2/IC50 Plasmodium falciparum D6
Type: ADME, organism-based
Settings: in vitro
REPORTED ENDPOINT: Ratio IC50
Would you mind answering with just the numeric figure?

Can you look up the measured Ratio IC50 of O=C(/C=C/c1ccc2ccccc2n1)c1ccc(F)cc1F for me?
0.57

Entry COc1cc(C(=O)/C=C/c2ccc3ccccc3c2)cc(OC)c1OC has what Ratio IC50?
0.91

Which measured Ratio IC50 value corresponds to O=C(/C=C/c1cnc2ccccc2c1)c1cc(F)ccc1F ?
1.4

Endpoint output: Ratio IC50 of COc1ccc(OC)c(C(=O)/C=C/c2ccc3ccccc3c2)c1 . Value?
0.91

Entry COc1ccc(C(=O)/C=C/c2cnc3ccccc3c2)cc1Cl has what Ratio IC50?
0.7

I am curious: what Ratio IC50 value has been reported for O=C(/C=C/c1ccnc2ccccc12)c1ccc(F)c(F)c1 ?
0.61

Tell me the measured Ratio IC50 of COc1ccc(C(=O)/C=C/c2ccc3ccccc3n2)c(OC)c1 , please.
0.6

Requested field: Ratio IC50. Item: COc1cccc(OC)c1C(=O)/C=C/c1cccc2ccccc12
0.97

Any idea what Ratio IC50 was measured for O=C(/C=C/c1ccnc2ccccc12)c1ccc(Cl)cc1Cl ?
2.9

Form field: reported Ratio IC50 of O=C(/C=C/c1cnc2ccccc2c1)c1ccc(F)cc1F
1.2

Which Ratio IC50 value is on record for COc1ccc(C(=O)/C=C/c2ccnc3ccccc23)cc1OC ?
0.57

Given the compound COc1ccc(OC)c(C(=O)/C=C/c2cnc3ccccc3c2)c1 , what is its reported Ratio IC50?
1.4
